src = paper PMC5616206

Assay: Pharmacokinetics of S9229 in rats, single iv or oral dose
Assay type: in vivo, Sprague-Dawley rats
Details: male, Sprague-Dawley, rat, plasma, po, 100 mg/kg
measurement type: AUC(0-t) (ng·h/mL)
Supply the numeric figure in ng·h/mL, leaving out any unit text.

Challenge: Specify measured AUC(0-t) for COC[C@@H](CC(C)C)NC(=O)c1ccc(C)c(C)c1 [S9229] .
Response given: 175

----------
Assay: Pharmacokinetics of S9229 in rats, single iv or oral dose
Format: in vivo, Sprague-Dawley rats
Details: female, Sprague-Dawley, rat, plasma, po, 30 mg/kg
measurement type: bioavailability (%)
Supply the numeric figure in %, leaving out any unit text.

Challenge: Specify measured bioavailability for COC[C@@H](CC(C)C)NC(=O)c1ccc(C)c(C)c1 [S9229] .
Response given: 0.1

----------
Test: Pharmacokinetics of S9229 in rats, single iv or oral dose
Format: in vivo, Sprague-Dawley rats
Details: male, Sprague-Dawley, rat, plasma, po, 100 mg/kg
measurement type: half-life (h)
Supply the numeric figure in h, leaving out any unit text.

Challenge: Specify measured half-life for `COC[C@@H](CC(C)C)NC(=O)c1ccc(C)c(C)c1` .
Response given: 2.24

----------
Test: Toxicokinetics of S9229 in the 28-day rat study
Format: in vivo, Sprague-Dawley rats
Conditions: female, Sprague-Dawley (Crl:CD(SD)), rat, plasma, po, 100 mg/kg, AUC0-24hr, Day 28, 100 mg/kg bw, F
measurement type: AUC(0-t) (ng·h/mL)
Supply the numeric figure in ng·h/mL, leaving out any unit text.

Challenge: Specify measured AUC(0-t) for COC[C@@H](CC(C)C)NC(=O)c1ccc(C)c(C)c1 [S9229] .
Response given: 144

----------
Assay: Pharmacokinetics of S807 in rats, single iv or oral dose
Type: in vivo, Sprague-Dawley rats
Settings: female, Sprague-Dawley, rat, plasma, po, 200 mg/kg
measurement type: bioavailability (%)
Supply the numeric figure in %, leaving out any unit text.

Challenge: Specify measured bioavailability for `CCCC(CCC)NC(=O)c1ccc2c(c1)OCO2` .
Response given: 158

----------
Experiment: Pharmacokinetics of S9229 in rats, single iv or oral dose
Assay type: in vivo, Sprague-Dawley rats
Conditions: male, Sprague-Dawley, rat, plasma, po, 100 mg/kg
measurement type: Tmax

Challenge: Specify measured Tmax for `COC[C@@H](CC(C)C)NC(=O)c1ccc(C)c(C)c1` .
Response given: 49.8 min

----------
Assay: Toxicokinetics of S9229 in the 28-day rat study
Assay type: in vivo, Sprague-Dawley rats
Conditions: female, Sprague-Dawley (Crl:CD(SD)), rat, plasma, po, 30 mg/kg, AUC0-24hr, Day 1, 30 mg/kg bw, F
measurement type: AUC(0-t) (ng·h/mL)
Supply the numeric figure in ng·h/mL, leaving out any unit text.

Challenge: Specify measured AUC(0-t) for `COC[C@@H](CC(C)C)NC(=O)c1ccc(C)c(C)c1` .
Response given: 12.6

----------
Assay: Pharmacokinetics of S9229 in rats, single iv or oral dose
Format: in vivo, Sprague-Dawley rats
Conditions: female, Sprague-Dawley, rat, plasma, iv, 1 mg/kg
measurement type: Vd (L/kg)
Supply the numeric figure in L/kg, leaving out any unit text.

Challenge: Specify measured Vd for `COC[C@@H](CC(C)C)NC(=O)c1ccc(C)c(C)c1` .
Response given: 2.82

----------
Experiment: Pharmacokinetics of S9229 in rats, single iv or oral dose
Format: in vivo, Sprague-Dawley rats
Conditions: female, Sprague-Dawley, rat, plasma, iv, 1 mg/kg
measurement type: Tmax (min)
Supply the numeric figure in min, leaving out any unit text.

Challenge: Specify measured Tmax for COC[C@@H](CC(C)C)NC(=O)c1ccc(C)c(C)c1 [S9229] .
Response given: 1.8

----------
Experiment: Pharmacokinetics of S9229 in rats, single iv or oral dose
Type: in vivo, Sprague-Dawley rats
Conditions: female, Sprague-Dawley, rat, plasma, po, 30 mg/kg
measurement type: Cmax (ng/mL)
Supply the numeric figure in ng/mL, leaving out any unit text.

Challenge: Specify measured Cmax for COC[C@@H](CC(C)C)NC(=O)c1ccc(C)c(C)c1 [S9229] .
Response given: 55.4

----------
Assay: Pharmacokinetics of S9229 in rats, single iv or oral dose
Assay type: in vivo, Sprague-Dawley rats
Conditions: male, Sprague-Dawley, rat, plasma, po, 30 mg/kg
measurement type: bioavailability
Provide a numeric answer, followed by its unit.

Challenge: Specify measured bioavailability for COC[C@@H](CC(C)C)NC(=O)c1ccc(C)c(C)c1 [S9229] .
Response given: 0.04%

----------
Assay: Pharmacokinetics of S807 in rats, single iv or oral dose
Format: in vivo, Sprague-Dawley rats
Details: female, Sprague-Dawley, rat, plasma, iv, 1 mg/kg, CL (clearance), iv 1 mg/kg bw, female rat
measurement type: clearance (mL/min/kg)
Supply the numeric figure in mL/min/kg, leaving out any unit text.

Challenge: Specify measured clearance for CCCC(CCC)NC(=O)c1ccc2c(c1)OCO2 [S807] .
Response given: 47.2

----------
Test: Pharmacokinetics of S9229 in rats, single iv or oral dose
Type: in vivo, Sprague-Dawley rats
Conditions: male, Sprague-Dawley, rat, plasma, po
measurement type: bioavailability

Challenge: Specify measured bioavailability for COC[C@@H](CC(C)C)NC(=O)c1ccc(C)c(C)c1 [S9229] .
Response given: 0.04 to 0.1%

----------
Test: Pharmacokinetics of S9229 in rats, single iv or oral dose
Type: in vivo, Sprague-Dawley rats
Settings: male, Sprague-Dawley, rat, plasma, po, 10 mg/kg
measurement type: Tmax (min)
Supply the numeric figure in min, leaving out any unit text.

Challenge: Specify measured Tmax for `COC[C@@H](CC(C)C)NC(=O)c1ccc(C)c(C)c1` .
Response given: 15

----------
Assay: Pharmacokinetics of S9229 in rats, single iv or oral dose
Assay type: in vivo, Sprague-Dawley rats
Settings: male, Sprague-Dawley, rat, plasma, iv, 1 mg/kg
measurement type: half-life (h)
Supply the numeric figure in h, leaving out any unit text.

Challenge: Specify measured half-life for COC[C@@H](CC(C)C)NC(=O)c1ccc(C)c(C)c1 [S9229] .
Response given: 5.38

----------
Experiment: Pharmacokinetics of S807 in rats, single iv or oral dose
Format: in vivo, Sprague-Dawley rats
Conditions: female, Sprague-Dawley, rat, plasma, po, 20 mg/kg
measurement type: AUC(0-t) (ng·h/mL)
Supply the numeric figure in ng·h/mL, leaving out any unit text.

Challenge: Specify measured AUC(0-t) for CCCC(CCC)NC(=O)c1ccc2c(c1)OCO2 [S807] .
Response given: 166

----------
Experiment: Pharmacokinetics of S9229 in rats, single iv or oral dose
Assay type: in vivo, Sprague-Dawley rats
Conditions: female, Sprague-Dawley, rat, plasma, iv, 1 mg/kg
measurement type: AUC(0-t) (ng·h/mL)
Supply the numeric figure in ng·h/mL, leaving out any unit text.

Challenge: Specify measured AUC(0-t) for `COC[C@@H](CC(C)C)NC(=O)c1ccc(C)c(C)c1` .
Response given: 1730

----------
Assay: Pharmacokinetics of S807 in rats, single iv or oral dose
Format: in vivo, Sprague-Dawley rats
Settings: female, Sprague-Dawley, rat, plasma, po, 50 mg/kg
measurement type: Cmax

Challenge: Specify measured Cmax for `CCCC(CCC)NC(=O)c1ccc2c(c1)OCO2` .
Response given: 529 ng/mL

----------
Assay: Pharmacokinetics of S807 in rats, single iv or oral dose
Assay type: in vivo, Sprague-Dawley rats
Conditions: male, Sprague-Dawley, rat, plasma, po, 200 mg/kg
measurement type: bioavailability (%)
Supply the numeric figure in %, leaving out any unit text.

Challenge: Specify measured bioavailability for `CCCC(CCC)NC(=O)c1ccc2c(c1)OCO2` .
Response given: 103

----------
Assay: Toxicokinetics of S9229 in the 28-day rat study
Assay type: in vivo, Sprague-Dawley rats
Details: female, Sprague-Dawley (Crl:CD(SD)), rat, plasma, po, 100 mg/kg, t1/2, Day 28, 100 mg/kg bw, F
measurement type: half-life (min)
Supply the numeric figure in min, leaving out any unit text.

Challenge: Specify measured half-life for `COC[C@@H](CC(C)C)NC(=O)c1ccc(C)c(C)c1` .
Response given: 58.8

----------
Experiment: Pharmacokinetics of S807 in rats, single iv or oral dose
Assay type: in vivo, Sprague-Dawley rats
Details: male, Sprague-Dawley, rat, plasma, po, 20 mg/kg
measurement type: bioavailability (%)
Supply the numeric figure in %, leaving out any unit text.

Challenge: Specify measured bioavailability for `CCCC(CCC)NC(=O)c1ccc2c(c1)OCO2` .
Response given: 1.85
